As shown below, each of these compounds has a reported IC50 value.
biological target: Human Neutrophil Elastase (HNE) (Homo sapiens, UniProt P08246); construct: Human Neutrophil Elastase (HNE) purified from serum; test: Human Neutrophil Elastase Quenched-FRET Assay; details: 1.7 nM HNE, 100 μM MeOSuc-AAPV-AMC, 15 min pre-incubation, 30 min at room temperature; read-out: Inhibition of Human Neutrophil Elastase IC50
Sequence (P08246 30-247 limits assumed): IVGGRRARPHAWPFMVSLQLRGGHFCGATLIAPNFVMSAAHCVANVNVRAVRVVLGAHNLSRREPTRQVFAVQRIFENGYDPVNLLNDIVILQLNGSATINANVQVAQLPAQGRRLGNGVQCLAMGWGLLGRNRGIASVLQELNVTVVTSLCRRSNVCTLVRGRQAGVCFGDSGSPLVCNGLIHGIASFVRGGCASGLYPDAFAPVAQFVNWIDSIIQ
Give the quantity in nM, number only.

Examples with answers:
Input: Retrieve IC50 on Human Neutrophil Elastase (HNE) (Homo sapiens, UniProt P08246); query `Cc1c(-c2ccnn2-c2ccc(C#N)cc2)nc(C(N)=O)c(=O)n1-c1cccc(C(F)(F)F)c1`
Output: 2.2

Input: Retrieve IC50 on Human Neutrophil Elastase (HNE) (Homo sapiens, UniProt P08246); query `Cc1c(-c2ccnn2-c2ccc(Cl)cn2)nc(C(N)=O)c(=O)n1-c1cccc(C(F)(F)F)c1`
Output: 28

Input: Retrieve IC50 on Human Neutrophil Elastase (HNE) (Homo sapiens, UniProt P08246); query `Cc1cc(-c2nc(C(N)=O)c(=O)n(-c3cccc(C(F)(F)F)c3)c2C)n(-c2ccc(C#N)cc2)n1`
Output: 3.5

Input: Retrieve IC50 on Human Neutrophil Elastase (HNE) (Homo sapiens, UniProt P08246); query `Cc1c(C2=NC(C)(C)CN2c2ccc(C#N)cc2)nc(C(N)=O)c(=O)n1-c1cccc(C(F)(F)F)c1`
Output: 1.4

Input: Retrieve IC50 on Human Neutrophil Elastase (HNE) (Homo sapiens, UniProt P08246); query `Cc1c(-c2ccnn2-c2ccc(C#N)cc2)nc(C(=O)NC2CC2)c(=O)n1-c1cccc(C#N)c1`
Output: 4.2

Please look at the following compound next.
Input: Retrieve IC50 on Human Neutrophil Elastase (HNE) (Homo sapiens, UniProt P08246); query `Cc1c(-c2ccnn2-c2ccc(Cl)cc2)nc(C(N)=O)c(=O)n1-c1cccc(C(F)(F)F)c1`
Output: 11
